EXPERIMENTAL TARGET: Muscarinic acetylcholine receptor M1 (Homo sapiens, UniProt P11229)
Sequence (P11229 whole entry): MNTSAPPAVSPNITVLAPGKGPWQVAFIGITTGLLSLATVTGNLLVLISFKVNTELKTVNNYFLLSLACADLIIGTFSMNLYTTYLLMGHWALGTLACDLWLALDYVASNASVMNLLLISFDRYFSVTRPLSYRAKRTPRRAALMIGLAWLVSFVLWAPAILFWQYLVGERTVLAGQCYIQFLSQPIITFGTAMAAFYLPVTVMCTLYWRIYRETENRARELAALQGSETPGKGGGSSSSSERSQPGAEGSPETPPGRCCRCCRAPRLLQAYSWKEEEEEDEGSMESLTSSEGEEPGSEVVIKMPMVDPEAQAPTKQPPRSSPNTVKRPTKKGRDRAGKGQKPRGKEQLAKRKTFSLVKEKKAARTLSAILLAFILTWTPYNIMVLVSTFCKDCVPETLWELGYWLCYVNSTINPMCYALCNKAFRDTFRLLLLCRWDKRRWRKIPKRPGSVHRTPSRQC
QUANTITY MEASURED: Ki (µM)
One number for each entry, in µM.

compound C[C@H]1CC[C@H](C)N1CCCOc1ccc(-c2ccc(C(=O)N3CCOCC3)cc2)cc1 , Ki observed: 1.62

* * *

ASSAY PROCEDURE: Bioavailability after oral administration (2.5 mg/kg) in dog was determined
Assay type: ADME, organism-based, Canis lupus familiaris
TEST CONDITIONS: in vivo
QUANTITY MEASURED: bioavailability
Please provide the amount together with its unit, number first.

The reported bioavailability of the molecule C[C@H]1CC[C@H](C)N1CCCOc1ccc(-c2ccc(C(=O)N3CCOCC3)cc2)cc1 was 33%

* * *

EXPERIMENTAL TARGET: Histamine H3 receptor (Homo sapiens, UniProt Q9Y5N1)
Sequence (Q9Y5N1 whole entry): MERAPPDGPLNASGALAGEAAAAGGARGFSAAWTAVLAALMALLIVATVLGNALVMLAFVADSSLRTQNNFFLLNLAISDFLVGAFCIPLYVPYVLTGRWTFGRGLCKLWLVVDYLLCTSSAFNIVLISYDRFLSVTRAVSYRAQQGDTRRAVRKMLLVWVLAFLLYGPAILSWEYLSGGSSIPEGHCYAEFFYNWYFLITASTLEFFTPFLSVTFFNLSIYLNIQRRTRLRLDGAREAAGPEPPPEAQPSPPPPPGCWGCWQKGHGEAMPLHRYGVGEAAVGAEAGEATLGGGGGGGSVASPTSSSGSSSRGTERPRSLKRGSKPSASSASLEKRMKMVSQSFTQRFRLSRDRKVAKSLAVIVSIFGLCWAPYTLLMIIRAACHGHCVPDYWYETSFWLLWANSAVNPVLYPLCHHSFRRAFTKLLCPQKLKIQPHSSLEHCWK
ASSAY PROCEDURE: Binding affinity for human recombinant H3 receptor
pKi: −log10 of the molar value.
# binarize pKi: threshold 8 inclusive, high side met, low side not met

chemical_smiles=CC1CCN(C(=O)c2ccc(-c3ccc(OCCCN4[C@@H](C)CC[C@@H]4C)cc3)cc2)CC1 classification=met
chemical_smiles=CC1CCN(CCCOc2ccc(-c3ccc(C(=O)N4[C@@H](C)CC[C@@H]4C)cc3)cc2)CC1 classification=met
chemical_smiles=CC(C)NCCCOc1ccc(-c2ccc(C(=O)N3CCOCC3)cc2)cc1 classification="not met"

Now for another entry.
Hi team, for CCN(CC)C(=O)c1ccc(-c2ccc(OCCCN3CCC(C)CC3)cc2)cc1 , is the recorded pKi at or above 8?
met

* * *

Notes on Ki obtained with Histamine H3 receptor (Rattus norvegicus).
Sequence (Q9QYN8 whole entry): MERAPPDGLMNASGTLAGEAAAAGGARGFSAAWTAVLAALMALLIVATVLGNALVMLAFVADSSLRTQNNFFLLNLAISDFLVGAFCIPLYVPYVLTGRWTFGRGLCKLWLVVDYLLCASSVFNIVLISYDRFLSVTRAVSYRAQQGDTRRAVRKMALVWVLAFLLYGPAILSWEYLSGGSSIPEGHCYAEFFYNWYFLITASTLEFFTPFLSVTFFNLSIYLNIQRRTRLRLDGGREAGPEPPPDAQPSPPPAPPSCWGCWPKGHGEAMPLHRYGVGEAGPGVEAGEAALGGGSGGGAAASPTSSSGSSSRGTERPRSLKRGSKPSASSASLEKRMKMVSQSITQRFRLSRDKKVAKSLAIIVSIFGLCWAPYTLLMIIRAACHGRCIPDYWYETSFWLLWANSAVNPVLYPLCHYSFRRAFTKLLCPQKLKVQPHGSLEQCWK
Give bare numbers, in nM.

chemical_smiles=CC(C)N(C)C(=O)c1ccc(-c2ccc(OCCCN3CC[C@H](O)C3)cc2)cc1 endpoint_unit=nM val=28.8
chemical_smiles=C[C@H]1CC[C@H](C)N1C(=O)c1ccc(-c2ccc(OCCCN3CC[C@H](N(C)C)C3)cc2)cc1 endpoint_unit=nM val=17.4
chemical_smiles=C[C@H]1CC[C@H](C)N1C(=O)c1ccc(-c2ccc(OCCCN3CCOCC3)cc2)cc1 endpoint_unit=nM val=115
chemical_smiles=CCN(CC)CCCOc1ccc(-c2ccc(C(=O)N3[C@@H](C)CC[C@@H]3C)cc2)cc1 endpoint_unit=nM val=13.8
chemical_smiles=CCN(CC)C(=O)c1ccc(-c2ccc(OCCCN3CCOCC3)cc2)cc1 endpoint_unit=nM val=97.7
chemical_smiles=CC1CCN(CCCOc2ccc(-c3ccc(C(=O)N4[C@@H](C)CC[C@@H]4C)cc3)cc2)CC1 endpoint_unit=nM val=3.63

Give Ki for all molecules that follow.
1. CCN(CC)CCCOc1ccc(-c2ccc(C(=O)N3CCCC3)cc2)cc1
2. CCN(CC)CCCOc1ccc(-c2ccc(C(=O)N3CCOCC3)cc2)cc1
3. O=C(c1ccc(-c2ccc(OCCCN3CC[C@H](O)C3)cc2)cc1)N1CCOCC1

12.9
8.91
32.4

* * *

ASSAY PROCEDURE: Plasma clearance after oral administration (2.5 mg/kg) in dog was determined
Assay type: ADME, organism-based, Canis lupus familiaris
TEST CONDITIONS: read-out: Clp (converted)
QUANTITY MEASURED: CL/F (mL/min/kg)
Answers are plain numbers, in mL/min/kg.

CL/F measured on C[C@H]1CC[C@H](C)N1CCCOc1ccc(-c2ccc(C(=O)N3CCOCC3)cc2)cc1 = 10

* * *

EXPERIMENTAL TARGET: Sodium-dependent dopamine transporter (Homo sapiens, UniProt Q01959)
Sequence (Q01959 whole entry): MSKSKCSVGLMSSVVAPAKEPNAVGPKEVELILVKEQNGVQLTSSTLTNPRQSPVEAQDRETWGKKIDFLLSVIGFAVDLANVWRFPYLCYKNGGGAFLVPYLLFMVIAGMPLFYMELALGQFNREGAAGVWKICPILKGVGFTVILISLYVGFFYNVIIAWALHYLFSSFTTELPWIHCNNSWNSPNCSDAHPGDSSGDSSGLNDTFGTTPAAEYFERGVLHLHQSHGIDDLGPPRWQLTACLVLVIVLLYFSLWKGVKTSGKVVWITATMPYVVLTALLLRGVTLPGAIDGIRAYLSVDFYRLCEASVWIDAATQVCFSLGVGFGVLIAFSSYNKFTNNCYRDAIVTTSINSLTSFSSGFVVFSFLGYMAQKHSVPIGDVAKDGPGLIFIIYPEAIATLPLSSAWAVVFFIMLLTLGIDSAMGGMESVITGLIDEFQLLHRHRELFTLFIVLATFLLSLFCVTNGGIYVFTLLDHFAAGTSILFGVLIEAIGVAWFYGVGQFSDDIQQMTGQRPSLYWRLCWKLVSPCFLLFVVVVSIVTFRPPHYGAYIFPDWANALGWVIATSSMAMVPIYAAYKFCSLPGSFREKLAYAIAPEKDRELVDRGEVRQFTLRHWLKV
QUANTITY MEASURED: pKi
Answers are plain numbers, as −log10 of the molar value.

With Sodium-dependent dopamine transporter (Homo sapiens, UniProt Q01959) as the test system, C[C@H]1CC[C@H](C)N1CCCOc1ccc(-c2ccc(C(=O)N3CCOCC3)cc2)cc1 showed pKi of 5.31

* * *

ASSAY PROCEDURE: The peak plasma concentration after 5 hr administration (2.5 mg/kg) in monkey was determined
Format: ADME, organism-based
Parameters: dose 2.5 mg/kg
TEST CONDITIONS: cercopithecidae
QUANTITY MEASURED: Cmax
The reply should read as a number followed by its unit.

Lab note: measured Cmax of C[C@H]1CC[C@H](C)N1CCCOc1ccc(-c2ccc(C(=O)N3CCOCC3)cc2)cc1 [A-349,821] was 170 ng/mL

* * *

Field: log10(Ki). Provide a value for each of the compounds that follow.
EXPERIMENTAL TARGET: Histamine H3 receptor (Homo sapiens)
ASSAY PROCEDURE: Binding affinity for human recombinant H3 receptor
The figures below represent log10 of Ki, where Ki is stated in nM.

Example entries begin here.
compound=CC1CCN(C(=O)c2ccc(-c3ccc(OCCCNC(C)C)cc3)cc2)CC1 val=2.26
compound=CCN(CC)C(=O)c1ccc(-c2ccc(OCCCN3[C@@H](C)CC[C@@H]3C)cc2)cc1 val=-0.11
compound=CC1CCN(C(=O)c2ccc(-c3ccc(OCCCN4CC[C@H](O)C4)cc3)cc2)CC1 val=0.84
compound=CC(C)NCCCOc1ccc(-c2ccc(C(=O)N3[C@@H](C)CC[C@@H]3C)cc2)cc1 val=2.36
compound=CC1CCN(CCCOc2ccc(-c3ccc(C(=O)N4CCCC4)cc3)cc2)CC1 val=0.56
compound="CC1CCCN1C(=O)c1ccc(-c2ccc(OCCCN3CC[C@H](O)C3)cc2)cc1 (stereo not given in full)" val=0.92

I would be grateful if you could provide log10(Ki) for each of the following entries.
1. CN(C)[C@@H]1CCN(CCCOc2ccc(-c3ccc(C(=O)N4CCOCC4)cc3)cc2)C1
2. CC(C)NCCCOc1ccc(-c2ccc(C(=O)N3CCCC3C)cc2)cc1 (stereo not given)
3. O=C(c1ccc(-c2ccc(OCCCN3CC[C@H](O)C3)cc2)cc1)N1CCOCC1
4. CCN(CC)C(=O)c1ccc(-c2ccc(OCCCN3CCOCC3)cc2)cc1
5. O=C(c1ccc(-c2ccc(OCCCN3CCOCC3)cc2)cc1)N1CCOCC1
6. CC1CCN(C(=O)c2ccc(-c3ccc(OCCCN4CCOCC4)cc3)cc2)CC1
7. CCN(CC)CCCOc1ccc(-c2ccc(C(=O)N3CCOCC3)cc2)cc1

1. 0.74
2. 0.99
3. 0.79
4. 1.21
5. 1.26
6. 1.37
7. 0.38

Quick request: log10(Ki) for each listed item, please.
1. CC(C)N(C)C(=O)c1ccc(-c2ccc(OCCCN3CC[C@H](O)C3)cc2)cc1
2. O=C(c1ccc(-c2ccc(OCCCN3CC[C@H](O)C3)cc2)cc1)N1CCCC1
3. CC1CCCN1C(=O)c1ccc(-c2ccc(OCCCN3CCOCC3)cc2)cc1 (stereo not given)
4. CC1CCN(C(=O)c2ccc(-c3ccc(OCCCN4CC[C@@H](N(C)C)C4)cc3)cc2)CC1
5. CC1CCCN1C(=O)c1ccc(-c2ccc(OCCCN3CC[C@H](N(C)C)C3)cc2)cc1 (stereo not given in full)
6. C[C@H]1CC[C@H](C)N1CCCOc1ccc(-c2ccc(C(=O)N3[C@@H](C)CC[C@@H]3C)cc2)cc1
7. C[C@H]1CC[C@H](C)N1CCCOc1ccc(-c2ccc(C(=O)N3CCOCC3)cc2)cc1

1. 0.91
2. 0.81
3. 1.39
4. 0.59
5. 0.81
6. -0.01
7. -0.31

* * *

EXPERIMENTAL TARGET: Histamine H1 receptor (Homo sapiens)
Sequence (P35367 whole entry): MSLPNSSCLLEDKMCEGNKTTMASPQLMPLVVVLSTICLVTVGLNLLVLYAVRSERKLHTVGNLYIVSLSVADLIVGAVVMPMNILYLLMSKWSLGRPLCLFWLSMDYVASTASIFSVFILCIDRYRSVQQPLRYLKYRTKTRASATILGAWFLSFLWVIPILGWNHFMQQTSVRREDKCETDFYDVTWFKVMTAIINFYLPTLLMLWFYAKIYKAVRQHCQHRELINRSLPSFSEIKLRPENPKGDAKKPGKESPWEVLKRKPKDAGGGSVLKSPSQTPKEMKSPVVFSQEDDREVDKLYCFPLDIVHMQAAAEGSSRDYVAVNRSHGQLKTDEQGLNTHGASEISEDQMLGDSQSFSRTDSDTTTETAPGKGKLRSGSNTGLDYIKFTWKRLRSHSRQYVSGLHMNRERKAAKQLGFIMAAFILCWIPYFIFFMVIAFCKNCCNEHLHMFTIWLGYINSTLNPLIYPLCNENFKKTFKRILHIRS
ASSAY PROCEDURE: Binding affinity towards human histaminergic (H1) receptor
QUANTITY MEASURED: Ki (nM)
Numbers only, in nM.

Entry C[C@H]1CC[C@H](C)N1CCCOc1ccc(-c2ccc(C(=O)N3CCOCC3)cc2)cc1 — recorded Ki = 2340

* * *

EXPERIMENTAL TARGET: Histamine H3 receptor (Homo sapiens, UniProt Q9Y5N1)
ASSAY PROCEDURE: Binding affinity for human recombinant H3 receptor
QUANTITY MEASURED: log10 of Ki (log10 of the value in nM)
Scale type: logarithmic (base 10). Underlying Ki unit: nM.

Solved entries (count: 2):
molecule=CCN(CC)CCCOc1ccc(-c2ccc(C(=O)N3CCCC3)cc2)cc1 experimental_target="Histamine H3 receptor (Homo sapiens, UniProt Q9Y5N1)" val=0.48
molecule=CCN(CC)CCCOc1ccc(-c2ccc(C(=O)NC(C)C)cc2)cc1 experimental_target="Histamine H3 receptor (Homo sapiens, UniProt Q9Y5N1)" val=0.79

State the recorded log10 of Ki for every item in the following list.
1. C[C@H]1CC[C@H](C)N1C(=O)c1ccc(-c2ccc(OCCCN3CC[C@H](N(C)C)C3)cc2)cc1
2. CCN(CC)C(=O)c1ccc(-c2ccc(OCCCNC(C)C)cc2)cc1

1. 0.64
2. 2.04

GET /values?item= CC1CCN(CCCOc2ccc(-c3ccc(C(=O)N4CCCC4C)cc3)cc2)CC1 (stereo not given) &system= Histamine H3 receptor (Homo sapiens, UniProt Q9Y5N1) returns log10 of Ki: 0.57
